Sourced from the supplement of paper PMC10065799

# Tested on: Fer (mouse);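 further: 11-residue human phosphosite peptides and single-mutation variants displayed on the E. coli surface, counted by deep sequencing, each peptide's frequency after selection divided by its frequency in the unselected input library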;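 further: frequency after pTyr selection over input frequency; kinase dosed for 20-30% of maximal phosphorylation in three min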
# protocol_details: phosphorylation enrichment, bacterial display (enrichment ratio); higher = better substrate or ligand; peptides without Tyr show the background
Label No if phosphorylation enrichment falls below 0.8; label Yes in every other case.

[[record]]
polymer_sequence = "DLEKTYNTYRS [B4GALNT2_Y538_A533D]"
assay_target = "Fer (mouse)"
answer_label = "No"

[[record]]
polymer_sequence = "EEKKKYYDAKI [CASP5_Y103_T106A]"
assay_target = "Fer (mouse)"
answer_label = "No"

[[record]]
polymer_sequence = "GHLYAYDWISI [BEST1_Y227]"
assay_target = "Fer (mouse)"
answer_label = "Yes"

[[record]]
polymer_sequence = "DPLLTHRFPPK [LMNA_Y481_Y481H]"
assay_target = "Fer (mouse)"
answer_label = "No"

[[record]]
polymer_sequence = "SVTCTYSPAVN [TP53_Y126_L130V]"
assay_target = "Fer (mouse)"
answer_label = "No"

[[record]]
polymer_sequence = "LLVVLNKFRCF [PSEN1_Y154_Y154N_YF]"
assay_target = "Fer (mouse)"
answer_label = "Yes"

